Experiment: protein stability index of a GFP-peptide fusion (GPS, HEK-293T) (PSI 1-6); higher = more stable;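 also: 24-mer peptide tiles fused after GFP, lentivirally expressed, FACS-sorted into six equal bins by GFP/DsRed ratio, decoded by Illumina sequencing, PSI is the read-weighted mean bin number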
Conditions: treatment: DMSO; c terminus: a fixed tail appended
Decide using protein stability index: a value greater than or equal to 4 is y, a smaller one is n.

[[record]]
query_sequence = "RDHVETELLKEAELIRNIQELLKR [TEKT4]"
label_value = "n"

[[record]]
query_sequence = "GYSDRDGYGRDRDYSDHPSGGSYR [RBMX]"
label_value = "y"

[[record]]
query_sequence = "LEEFKENAYKDLAWKHGNIHLSAP [PCMTD2]"
label_value = "n"

[[record]]
query_sequence = "QPRDEEEAELELLRQFDLAWQYGP [POLD4]"
label_value = "y"

[[record]]
query_sequence = "IDSSSSWWTNWVIPAISAVAVALM [CYB5A]"
label_value = "n"

[[record]]
query_sequence = "GSGDSGDSSEEESHRVVLRPRGKE [LYSMD4]"
label_value = "y"

[[record]]
query_sequence = "QSAYDVADMLKQYFRDLPEPLMTN [DLC1]"
label_value = "n"

[[record]]
query_sequence = "ADVNAQSSTGNTALTYACAGGYVD [ANKRD17]"
label_value = "y"

[[record]]
query_sequence = "EEKMETKTESSGIETEPTVHHLPL [EPB41L3]"
label_value = "y"

[[record]]
query_sequence = "RSLLGYDPQILQMLKEEHQIILEN [RAD54B]"
label_value = "n"

[[record]]
query_sequence = "REKPFKCQECGKTFRVSSDLIKHQ [ZNF75A]"
label_value = "y"

[[record]]
query_sequence = "LFDFDLEVKPVLEVLVGKTIEQSL [RSPH3]"
label_value = "n"

[[record]]
query_sequence = "SQKNEKALTNIQNCMAEKRETVLI [C8orf76]"
label_value = "n"

[[record]]
query_sequence = "ANGEIQRHAEQQALRLEVRAGPDS [CARM1]"
label_value = "y"

[[record]]
query_sequence = "GLHYIAFRKVKQMHLNFMDEKDRI [DNAJC4]"
label_value = "n"

[[record]]
query_sequence = "KNLQQTTNTTSTQMTNIGVYVSNM [IQUB]"
label_value = "n"

[[record]]
query_sequence = "APSATIHQGEEEGPLDIWAVVKPG [FBXO34]"
label_value = "y"

[[record]]
query_sequence = "LNLTRKLAQQLCTALLFLATPELS [DYRK1B]"
label_value = "n"

[[record]]
query_sequence = "FVVEYHGDLIEITDAKKREALYAQ [KMT5A]"
label_value = "n"

[[record]]
query_sequence = "RTRRRLSRNRDPGRLILSTIRLRP [PWWP2B]"
label_value = "y"

[[record]]
query_sequence = "DAATTDELSSLGSDSEANGFAERR [TBC1D10A]"
label_value = "y"

[[record]]
query_sequence = "WDPACLPLPPPPPAFKSMEVANFY [CEBPB]"
label_value = "n"

[[record]]
query_sequence = "QFYGYLSQQQNMMQDYVRTGTYQR [CARM1]"
label_value = "n"

[[record]]
query_sequence = "MNALLEQKEQQERLREAAALGDIR [ANKRD40]"
label_value = "y"

[[record]]
query_sequence = "LDLKGNNLRAAGAEALGKLLQQNK [LRRC45]"
label_value = "y"

[[record]]
query_sequence = "SKTVTSTMLGVFREDPKTREEFLT [GCH1]"
label_value = "y"

[[record]]
query_sequence = "RRSPRPDHPGTPPHKTFRKLRLFD [WEE1]"
label_value = "n"

[[record]]
query_sequence = "MVFIAGILLNGVSGWIFFYVPSSE [P2RY14]"
label_value = "n"

